For each record, write down the corresponding melting point.

For orientation, consider the following solved cases.
O=c1ccc(-c2ccc3c(c2)COC2(CCN(C4CCOCC4)CC2)O3)c[nH]1
230 to 232 °C
O=C(Nc1ccc2c(c1)CCC1(CCN(C3CCC3)CC1)O2)c1ccns1
109 to 111 °C
O=C(c1ccc(-c2ccc3c(c2)OC2(CCN(C4CCC4)CC2)O3)cc1)N1CCCC1
176.8 to 177.3 °C
CCC(=O)N1CCN(c2ccc3c(c2)COC2(CCN(C4CCC4)CC2)O3)C(=O)C1
146 to 148 °C
COc1cc(C(=O)NC2CCOCC2)ccc1-c1ccc2c(c1)COC1(CCN(C3CCC3)CC1)O2
100 to 102 °C
c1cnc(Nc2ccc3c(c2)COC2(CCN(C4CCC4)CC2)O3)nc1
55 to 58 °C
CC(C)S(=O)(=O)C1CCN(c2ccc3c(c2)COC2(CCN(C4CCC4)CC2)O3)CC1
142.6 to 145.1 °C

Switching to the query record.
Query :: Look up melting point of `CC(C)NC(=O)c1ccc(-c2ccc3c(c2)COC2(CCN(C4CCC4)CC2)O3)cc1F` and report it.
Result :: 146.5 to 148 °C
